Data credit: paper PMC7156458

# PROTOCOL: cytotoxicity in Drosophila DL1 cells
# Format: cell-based
# MEASUREMENT_SETUP: Drosophila, DL1 cells (embryonic macrophage-derived), DL1 cells, 0.2 µM, replicate 2, relative to DMSO 1%; read-out: % viability, viability 2
API: label(entry) gives yes if the entry's viability at 0.2 µM is strictly smaller than 60%; on equality or larger values it gives no.

[[record]]
compound = "C=C1CCC2C(C)(CC(=O)C=C(C)C)C(O)CCC2(C)C1Cc1c(OC)oc(C)c(C)c1=O (centres unmarked) [Compound 25]"
answer_label = "no"


Could you please tell me whether viability at 0.2 µM recorded for C=C1CC[C@@H]2[C@](C)(CC[C@H]3O[C@H](C=C(C)C)C[C@@]23C)[C@@H]1Cc1c(O)c(C)c(C)oc1=O [Compound 10, higginsianin A] is less than 60%? yes

Now try C=C1CC[C@H]2[C@]3(C)C[C@H](C=C(C)C)O[C@H]3CC[C@]2(C)[C@@H]1Cc1c(O)c(C)c(C)oc1=O [Compound 6, subglutinol B] . yes

Now try C=C1CC[C@H]2[C@]3(C)C[C@H](C=C(C)C)O[C@H]3CC[C@]2(C)[C@@H]1Cc1c(OC)oc(CO)c(C)c1=O [Compound 18] . no

Now try C=C1CCC2C3(C)CC(C=C(C)C)OC3CCC2(C)C1Cc1c(OC)oc(C)c(C)c1=O (centres unmarked) [Compound 23] . yes

---

# PROTOCOL: cytotoxicity in Drosophila DL1 cells
# Format: cell-based
# MEASUREMENT_SETUP: Drosophila, DL1 cells (embryonic macrophage-derived), DL1 cells, 10 µM, replicate 1, relative to DMSO 1%; read-out: % viability, viability 1
Parameter viability at 10 µM: see the listing below.
I only need the number, in %, no unit after it.

[[record]]
molecule = "C=C1CC[C@H]2[C@]3(C)C[C@H](C=C(C)C)O[C@H]3CC[C@]2(C)[C@@H]1Cc1c(OC)oc(CO)c(C)c1=O"
metric_name = "viability at 10 µM"
unit_of_measure = "%"
result = 5.18


Here is the next item to consider.
What viability at 10 µM value was documented for this molecule, C=C1CCC2C(C)(CCC=C(C)C)C(O)CCC2(C)C1Cc1c(OC)oc(CO)c(C)c1=O (stereo not shown) ? 6.32

---

# EXPERIMENTAL_TARGET: UniProt:P05067
# PROTOCOL: Th-T (thioflavin-T) assay of Aβ42 aggregation
# Format: biochemical
# MEASUREMENT_SETUP: time-course reading M97; Supplementary Fig. 47 source data
Parameter Th-T fluorescence, mean of three wells: see the listing below.
Answer with a bare number; do not write a unit.

[[record]]
compound = "C=C1CC[C@H]2[C@]3(C)C[C@H](C=C(C)C)O[C@H]3CC[C@]2(C)[C@@H]1Cc1c(OC)oc(CO)c(C)c1=O"
metric_name = "Th-T fluorescence, mean of three wells"
result = 3.893

[[record]]
compound = "C=C1CC[C@H]2[C@]3(C)C[C@H](C=C(C)C)O[C@H]3CC[C@]2(C)[C@@H]1Cc1c(OC)oc(C)c(C)c1=O"
metric_name = "Th-T fluorescence, mean of three wells"
result = 3.985


Here is the next item to consider.
What Th-T fluorescence, mean of three wells value was documented for this compound, C=C1CCC2C3(C)CC(C=C(C)C)OC3CCC2(C)C1Cc1c(OC)oc(C)c(C)c1=O (stereo not drawn) ? 3.915

---

# EXPERIMENTAL_TARGET: Aβ42 (Homo sapiens)
# PROTOCOL: Th-T (thioflavin-T) assay of Aβ42 aggregation
# Format: biochemical
# MEASUREMENT_SETUP: Supplementary Fig. 47; reading M139
Label -1 if Th-T fluorescence, mean of three wells falls below 3; label 1 in every other case.

Some solved cases for reference:
[[record]]
molecule = "C=C1CCC2C(C)(CCC=C(C)C)C(O)CCC2(C)C1Cc1c(O)c(C)c(C)oc1=O (centres unmarked) [Compound 4]"
answer_label = -1

[[record]]
molecule = "C=C1CCC2C(C)(CCC=C(C)C)C(O)CCC2(C)C1Cc1c(O)c(C)c(C)oc1=O (centres unmarked) [Compound 9, higginsianin B]"
answer_label = -1

[[record]]
molecule = "C=C1CCC2C(C)(CC(=O)C=C(C)C)C(O)CCC2(C)C1Cc1c(O)c(C)c(C)oc1=O (centres unmarked)"
answer_label = 1

[[record]]
molecule = "C=C1CCC2C(C)(CCC=C(C)C)C(O)CCC2(C)C1Cc1c(OC)oc(C)c(C)c1=O (centres unmarked) [Compound 15, viridoxin A hydrolysate]"
answer_label = 1


State whether the measured Th-T fluorescence, mean of three wells reaches 3, counting equality as reaching it, for C=C1CC[C@H]2[C@]3(C)C[C@H](C=C(C)C)O[C@H]3CC[C@]2(C)[C@@H]1Cc1c(OC)oc(CO)c(C)c1=O 1

Now try C=C1CCC2C3(C)CC(C=C(C)C)OC3CCC2(C)C1Cc1c(OC)oc(C)c(C)c1=O (centres unmarked) . 1

---

Parameter Th-T fluorescence, mean of three wells: see the listing below.
# EXPERIMENTAL_TARGET: Aβ42 (Homo sapiens, UniProt P05067)
# Sequence (P05067 672-713): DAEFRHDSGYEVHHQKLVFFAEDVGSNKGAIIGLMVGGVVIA
# PROTOCOL: Th-T (thioflavin-T) assay of Aβ42 aggregation
# Format: biochemical
# MEASUREMENT_SETUP: Supplementary Fig. 47 source data; measurement M44 of time course

Examples from the recorded data:
[[record]]
compound = "CC(C)=CCC/C(C)=C/CC/C(C)=C/CC/C(C)=C/Cc1c(O)c(C)c(C)oc1=O [Compound 2]"
metric_name = "Th-T fluorescence, mean of three wells"
result = 2.818

[[record]]
compound = "C=C1CC[C@H]2[C@]3(C)C[C@H](C=C(C)C)O[C@H]3CC[C@]2(C)[C@@H]1Cc1c(O)c(C)c(C)oc1=O [Compound 6, subglutinol B]"
metric_name = "Th-T fluorescence, mean of three wells"
result = 3.068


What Th-T fluorescence, mean of three wells value was documented for this compound, C=C1CCC2C(C)(CCC=C(C)C)C(=O)CCC2(C)C1Cc1c(O)c(C)c(C)oc1=O (stereo not shown) [Compound 8] ? 2.1886

Now try C=C1CCC2C(C)(CC(=O)C=C(C)C)C(O)CCC2(C)C1Cc1c(O)c(C)c(C)oc1=O (stereo not shown) [Compound 7] . 3.555

Now try C=C1CC[C@H]2[C@]3(C)C[C@@H](C=C(C)C)O[C@H]3CC[C@]2(C)[C@@H]1Cc1c(OC)oc(CO)c(C)c1=O [Compound 17] . 3.418

Now try C=C1CCC2C3(C)CC(C=C(C)C)OC3CCC2(C)C1Cc1c(OC)oc(C)c(C)c1=O (stereo not shown) [Compound 23] . 3.975

Now try C=C1CC[C@@H]2[C@](C)(CC[C@H]3O[C@H](C=C(C)C)C[C@@]23C)[C@@H]1Cc1c(O)c(C)c(C)oc1=O [Compound 10, higginsianin A] . 3.087

Now try C=C1CC[C@H]2[C@]3(C)C[C@H](C=C(C)C)O[C@H]3CC[C@]2(C)[C@@H]1Cc1c(OC)oc(CO)c(C)c1=O [Compound 18] . 3.884

Now try C=C1CCC2C(C)(CC(=O)C=C(C)C)C(O)CCC2(C)C1Cc1c(OC)oc(CO)c(C)c1=O (stereo not shown) [Compound 19] . 3.529

Now try C=C1CC[C@H]2[C@]3(C)C[C@@H](C=C(C)C)O[C@H]3CC[C@]2(C)[C@@H]1Cc1c(O)c(C)c(C)oc1=O [Compound 5, subglutinol A] . 2.6589

---

# EXPERIMENTAL_TARGET: UniProt:P05067
# PROTOCOL: Th-T (thioflavin-T) assay of Aβ42 aggregation
# Type: biochemical
# MEASUREMENT_SETUP: time-course reading M102; Supplementary Fig. 47 source data
METRIC_NAME: Th-T fluorescence, mean of three wells
Answer with a bare number; do not write a unit.

Examples from the recorded data:
[[record]]
line_notation = "C=C1CC[C@H]2[C@]3(C)C[C@@H](C=C(C)C)O[C@H]3CC[C@]2(C)[C@@H]1Cc1c(O)c(C)c(C)oc1=O"
experimental_target = "UniProt:P05067"
metric_name = "Th-T fluorescence, mean of three wells"
result = 2.671

[[record]]
line_notation = "C=C1CC[C@@H]2[C@](C)(CC[C@H]3O[C@H](C=C(C)C)C[C@@]23C)[C@@H]1Cc1c(OC)oc(CO)c(C)c1=O"
experimental_target = "UniProt:P05067"
metric_name = "Th-T fluorescence, mean of three wells"
result = 4.201

[[record]]
line_notation = "CC(C)=CCC/C(C)=C/CC/C(C)=C/CC/C(C)=C/Cc1c(O)c(C)c(C)oc1=O"
experimental_target = "UniProt:P05067"
metric_name = "Th-T fluorescence, mean of three wells"
result = 2.943

[[record]]
line_notation = "C=C1CC[C@H]2[C@]3(C)C[C@H](C=C(C)C)O[C@H]3CC[C@]2(C)[C@@H]1Cc1c(OC)oc(C)c(C)c1=O"
experimental_target = "UniProt:P05067"
metric_name = "Th-T fluorescence, mean of three wells"
result = 3.997


Here is the next item to consider.
What reported Th-T fluorescence, mean of three wells corresponds to C=C1CC[C@H]2[C@]3(C)C[C@@H](C=C(C)C)O[C@H]3CC[C@]2(C)[C@@H]1Cc1c(OC)oc(CO)c(C)c1=O on UniProt:P05067? 3.7
